Just for reference, paper PMC7851572 is where these values come from.

Target: olfactory receptor co-receptor (Orco) (Anopheles gambiae, UniProt Q7QCC7)
Construct: codon-optimized Orco cDNA in pPICZA (C-terminal c-myc tag detected), expressed in Pichia pastoris GS115
Sequence (Q7QCC7 whole entry): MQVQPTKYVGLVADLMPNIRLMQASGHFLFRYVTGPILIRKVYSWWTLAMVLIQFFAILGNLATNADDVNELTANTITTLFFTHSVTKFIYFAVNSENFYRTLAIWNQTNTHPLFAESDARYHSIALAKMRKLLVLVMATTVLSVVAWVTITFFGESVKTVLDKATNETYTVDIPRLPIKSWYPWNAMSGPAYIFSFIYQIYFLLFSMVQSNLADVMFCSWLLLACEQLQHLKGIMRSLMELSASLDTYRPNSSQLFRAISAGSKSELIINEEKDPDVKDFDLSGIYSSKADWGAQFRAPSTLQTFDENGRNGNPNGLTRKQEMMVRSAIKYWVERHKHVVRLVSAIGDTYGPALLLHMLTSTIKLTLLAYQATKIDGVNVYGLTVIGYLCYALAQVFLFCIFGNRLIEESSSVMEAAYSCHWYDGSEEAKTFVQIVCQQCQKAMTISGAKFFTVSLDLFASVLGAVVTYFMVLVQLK
Assay: fluo-4-AM calcium influx assay in Pichia pastoris expressing Orco, compared with GS115 control cells ([…] extracellular Ca2+)
Endpoint Name: pEC50
To interpret pEC50, take it as minus log10 of a concentration measured in moles per litre.

Ask: Given the entry CCc1ccc(NC(=O)CSc2nnc(-c3cccnc3)n2CC)cc1 , report its measured pEC50.
Reply: 3.39
